assay: fission yeast growth modulation, primary screen, strain 972, OD600, 24 h, no modulator (AID 1090);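 further: basal condition with compound alone and no growth modifier present; test concentration not given here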; conditions: S. pombe 972 growth, higher = more signal, called active from +8 up or from −8 down
recorded.endpoint: z-score
Provide a numeric answer; units are not to be included.

Ask | Returns the measured z-score for the input molecule. Input: COC(=O)CC=C[C@@H](C)[C@@H](C=NO[C@@H]1O[C@H](COC(C)=O)[C@@H](OC(C)=O)[C@H](OC(C)=O)[C@H]1OC(C)=O)NS(=O)(=O)c1ccc(C)cc1
Reply | -0.23

Ask | Returns the measured z-score for the input molecule. Input: C[C@H]1CC[C@H]2C(=O)O[C@H](COc3ccc(C(C)(C)C)cc3)CN2[C@@H]1c1ccc(Br)cc1
Reply | -0.725

Ask | Returns the measured z-score for the input molecule. Input: Cc1ccc(S(=O)(=O)N[C@H]2COC(=O)CC=C[C@@H](C)COC(=O)CC=C[C@@H]2C)cc1
Reply | 0.174

Ask | Returns the measured z-score for the input molecule. Input: CO[C@H]1COC(=O)[C@@H](C)COC(=O)[C@@H](OCc2ccccc2)C=C[C@@H]1C
Reply | -0.204

Ask | Returns the measured z-score for the input molecule. Input: C#CCCCON=C1[C@H]2CCn3c(=O)n(-c4ccccc4)c(=O)n3[C@H]2[C@H](O)[C@@H]2O[C@H]12
Reply | -0.813

Ask | Returns the measured z-score for the input molecule. Input: CCOC(=O)[C@H](Cc1ccccc1)NC(=O)CCC1CC(OC(=O)NCCc2ccc(F)cc2)CC2(CCCC(COC(=O)NCCCN3CCCC3=O)O2)O1 (stereo partly specified)
Reply | -0.574

Ask | Returns the measured z-score for the input molecule. Input: O=C1C2=CC[C@H]3C(=O)N(c4cccc(Oc5ccccc5)c4)C(=O)[C@H]3[C@H]2[C@H](O)[C@@H]2O[C@H]12
Reply | -0.974

Ask | Returns the measured z-score for the input molecule. Input: CCCCc1nc2c(c3c1C[C@H](C)OC3)CN(CCOc1ccccc1)CC2
Reply | -4.02

Ask | Returns the measured z-score for the input molecule. Input: C[C@@H](c1ccccc1)N1C(=O)[C@H]2[C@H]3[C@H](O)[C@H](O)CC(=NO[C@@H]4O[C@H](CO)[C@@H](O)[C@H](O)[C@H]4O)[C@H]3CC[C@H]2C1=O
Reply | 1.06

Ask | Returns the measured z-score for the input molecule. Input: CC[C@@H](c1ccccc1)n1c(=O)n2n(c1=O)[C@H]1[C@H](O)[C@@H]3O[C@@H]3C(=O)[C@H]1CC2
Reply | -2.45

Ask | Returns the measured z-score for the input molecule. Input: C=CC[C@@H]1C=C[C@H](ON=C(C)CCC(=O)OC[C@H]2O[C@H](C#Cc3ccccc3)C=C[C@@H]2Oc2ccc(C)cc2)[C@@H](CO)O1
Reply | 0.275

Ask | Returns the measured z-score for the input molecule. Input: COC(=O)CC=C[C@@H](C)[C@H](OCc1cccc(-c2ccccc2)c1)C1CCCCC1
Reply | -0.915

Ask | Returns the measured z-score for the input molecule. Input: CCN1C(=O)[C@H]2[C@H]3[C@H](O)[C@H](O)CC(=O)[C@H]3CC[C@H]2C1=O
Reply | -0.38

Ask | Returns the measured z-score for the input molecule. Input: O=C(NN=C1C[C@@H](O)[C@@H](O)[C@@H]2[C@@H]3C(=O)N(C[C@@H]4CCCO4)C(=O)[C@@H]3CC[C@H]12)OCc1ccccc1
Reply | 0.499

Ask | Returns the measured z-score for the input molecule. Input: CCOC(=O)NN=C1C[C@@H](O)[C@@H](O)[C@@H]2[C@@H]3C(=O)N(Cc4ccc5c(c4)OCO5)C(=O)[C@@H]3CC[C@H]12
Reply | 0.119

Ask | Returns the measured z-score for the input molecule. Input: CC(C)=CCCC(C)=CCON=C1C[C@@H](O)[C@@H](O)[C@@H]2[C@@H]3C(=O)N(C(C)(C)C)C(=O)[C@@H]3CC[C@H]12
Reply | 0.473
